Molecular target: Sodium-dependent dopamine transporter (Homo sapiens)
Sequence (Q01959 whole entry): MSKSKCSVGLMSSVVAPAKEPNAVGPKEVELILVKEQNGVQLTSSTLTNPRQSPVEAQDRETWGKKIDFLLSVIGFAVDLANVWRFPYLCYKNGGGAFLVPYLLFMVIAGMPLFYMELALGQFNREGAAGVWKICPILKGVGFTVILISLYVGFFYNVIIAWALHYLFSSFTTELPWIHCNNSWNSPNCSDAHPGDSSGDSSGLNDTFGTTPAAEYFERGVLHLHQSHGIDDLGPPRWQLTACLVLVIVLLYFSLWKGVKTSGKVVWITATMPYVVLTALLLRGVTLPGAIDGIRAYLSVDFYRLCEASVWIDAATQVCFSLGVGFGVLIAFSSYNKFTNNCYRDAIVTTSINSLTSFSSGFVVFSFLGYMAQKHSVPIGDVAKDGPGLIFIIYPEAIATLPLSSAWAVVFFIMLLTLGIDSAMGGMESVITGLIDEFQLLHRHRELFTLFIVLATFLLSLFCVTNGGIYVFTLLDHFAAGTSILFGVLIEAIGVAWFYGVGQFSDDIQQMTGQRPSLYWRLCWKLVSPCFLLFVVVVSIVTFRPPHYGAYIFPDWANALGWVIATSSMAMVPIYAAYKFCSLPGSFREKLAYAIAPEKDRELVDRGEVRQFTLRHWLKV
Assay: Inhibition of dopamine uptake at human DAT in human HEK293 cells
// reported log10 of IC50 for each item listed
READOUT LABEL: log10 of IC50 (log10 of the value in µM)

[[record]]
compound = "CCN(CC)[C@@H]1C[C@H](Oc2ccccc2C)c2ccccc21 (relative stereo)"
result = 0.40

[[record]]
compound = "CN[C@@H]1C[C@H](Oc2ccc(Cl)cc2)c2ccccc21 (relative stereo)"
result = 0.60

[[record]]
compound = "CN[C@H]1Cc2ccccc2[C@@H](Oc2ccccc2C)C1"
result = 0.78

[[record]]
compound = "CN[C@@H]1C[C@H](Oc2ccccc2C)c2ccccc21 (relative stereo)"
result = 0.66

[[record]]
compound = "Cc1ccccc1O[C@H]1C[C@@H](N(C)C)c2ccccc21 (relative stereo)"
result = 1.00

[[record]]
compound = "CN[C@H]1C[C@H](Oc2ccccc2C)c2ccccc21 (relative stereo)"
result = -0.74

[[record]]
compound = "N[C@@H]1C[C@H](Oc2ccc(Cl)cc2)c2ccccc21 (relative stereo)"
result = 0.38


---

Biological target: Sodium-dependent noradrenaline transporter (Homo sapiens)
Sequence (P23975 whole entry): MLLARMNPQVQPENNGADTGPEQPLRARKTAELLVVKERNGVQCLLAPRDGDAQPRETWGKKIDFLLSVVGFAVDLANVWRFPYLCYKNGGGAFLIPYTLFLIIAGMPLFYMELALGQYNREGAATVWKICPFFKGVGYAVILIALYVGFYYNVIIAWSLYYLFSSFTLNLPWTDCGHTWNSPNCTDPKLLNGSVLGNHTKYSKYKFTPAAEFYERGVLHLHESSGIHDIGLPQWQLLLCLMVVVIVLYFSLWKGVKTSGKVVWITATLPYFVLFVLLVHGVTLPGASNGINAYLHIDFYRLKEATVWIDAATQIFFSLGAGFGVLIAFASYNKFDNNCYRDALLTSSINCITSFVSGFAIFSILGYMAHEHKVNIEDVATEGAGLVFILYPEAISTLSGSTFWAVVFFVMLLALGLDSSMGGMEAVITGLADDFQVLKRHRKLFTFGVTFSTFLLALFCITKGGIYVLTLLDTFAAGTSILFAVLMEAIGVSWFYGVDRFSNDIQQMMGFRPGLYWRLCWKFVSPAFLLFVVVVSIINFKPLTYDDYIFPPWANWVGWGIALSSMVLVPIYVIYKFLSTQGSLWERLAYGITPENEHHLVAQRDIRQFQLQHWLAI
Assay: Inhibition of norepinephrine uptake at human NET in human HEK293 cells
As shown below, each of these molecules has a reported IC50 value.
READOUT LABEL: IC50 (nM)

[[record]]
molecule = "CN[C@@H]1C[C@H](Oc2ccccc2)c2ccccc21 (relative stereo)"
result = 2000

[[record]]
molecule = "CN(C)[C@@H]1C[C@H](Oc2ccccc2)c2ccccc21 (relative stereo)"
result = 800

[[record]]
molecule = "CN[C@H]1C[C@H](Oc2ccccc2C)c2ccccc21 (relative stereo)"
result = 72


---

// endpoint pIC50 / system Sodium-dependent serotonin transporter (Homo sapiens, UniProt P31645)
pIC50: −log10 of the molar value.
READOUT LABEL: pIC50

[[record]]
molecule = "CCN(CC)[C@@H]1C[C@H](Oc2ccccc2C)c2ccccc21 (relative stereo)"
system_name = "Sodium-dependent serotonin transporter (Homo sapiens, UniProt P31645)"
relation_symbol = "="
result = 5.52

[[record]]
molecule = "Cc1ccccc1O[C@@H]1C[C@@H](N(C)C)Cc2ccccc21"
system_name = "Sodium-dependent serotonin transporter (Homo sapiens, UniProt P31645)"
relation_symbol = "="
result = 6.15

[[record]]
molecule = "COc1ccc(O[C@H]2C[C@@H](N(C)C)c3ccccc32)cc1"
system_name = "Sodium-dependent serotonin transporter (Homo sapiens, UniProt P31645)"
relation_symbol = "="
result = 6.89

[[record]]
molecule = "CNCCC(Oc1ccccc1OC)c1ccccc1 (stereo not given) [NISOXETINE]"
system_name = "Sodium-dependent serotonin transporter (Homo sapiens, UniProt P31645)"
relation_symbol = "="
result = 5.85

[[record]]
molecule = "CN[C@@H]1C[C@H](Oc2ccccc2C)c2ccccc21 (relative stereo)"
system_name = "Sodium-dependent serotonin transporter (Homo sapiens, UniProt P31645)"
relation_symbol = "="
result = 5.85

[[record]]
molecule = "Cc1ccccc1O[C@H]1CC[C@@H](N)c2ccccc21 (relative stereo)"
system_name = "Sodium-dependent serotonin transporter (Homo sapiens, UniProt P31645)"
relation_symbol = "="
result = 5.64

[[record]]
molecule = "N[C@@H]1C[C@H](Oc2ccccc2)c2ccccc21 (relative stereo)"
system_name = "Sodium-dependent serotonin transporter (Homo sapiens, UniProt P31645)"
relation_symbol = "<"
result = 5.00

[[record]]
molecule = "CN[C@H]1Cc2ccccc2[C@H](Oc2ccccc2C)C1"
system_name = "Sodium-dependent serotonin transporter (Homo sapiens, UniProt P31645)"
relation_symbol = "="
result = 6.23

[[record]]
molecule = "CN[C@@H]1Cc2ccccc2[C@H](Oc2ccccc2C)C1"
system_name = "Sodium-dependent serotonin transporter (Homo sapiens, UniProt P31645)"
relation_symbol = "="
result = 5.52

[[record]]
molecule = "Cc1ccccc1O[C@H]1C[C@H](N)c2ccccc21 (relative stereo)"
system_name = "Sodium-dependent serotonin transporter (Homo sapiens, UniProt P31645)"
relation_symbol = "="
result = 5.00


---

These records show pIC50 for Sodium-dependent serotonin transporter (Homo sapiens, UniProt P31645).
pIC50: −log10 of the molar value.
READOUT LABEL: pIC50

[[record]]
molecule = "CN(C)[C@@H]1C[C@H](Oc2ccccc2)c2ccccc21 (relative stereo)"
relation_symbol = "="
result = 5.70

[[record]]
molecule = "CN[C@@H]1Cc2ccccc2[C@@H](Oc2ccccc2C)C1"
relation_symbol = "="
result = 5.48

[[record]]
molecule = "Cc1ccccc1O[C@H]1C[C@@H](N(C)C)c2ccccc21 (relative stereo)"
relation_symbol = "="
result = 6.52

[[record]]
molecule = "CN[C@@H]1C[C@H](Oc2ccccc2)c2ccccc21 (relative stereo)"
relation_symbol = "<"
result = 5.00

[[record]]
molecule = "CN[C@@H]1C[C@H](Oc2ccc(Cl)cc2)c2ccccc21 (relative stereo)"
relation_symbol = "="
result = 6.49


---

Molecular target: Sodium-dependent serotonin transporter (Homo sapiens);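 further: blockade of serotonin uptake through human SERT expressed in HEK293 cells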
Sequence (P31645 whole entry): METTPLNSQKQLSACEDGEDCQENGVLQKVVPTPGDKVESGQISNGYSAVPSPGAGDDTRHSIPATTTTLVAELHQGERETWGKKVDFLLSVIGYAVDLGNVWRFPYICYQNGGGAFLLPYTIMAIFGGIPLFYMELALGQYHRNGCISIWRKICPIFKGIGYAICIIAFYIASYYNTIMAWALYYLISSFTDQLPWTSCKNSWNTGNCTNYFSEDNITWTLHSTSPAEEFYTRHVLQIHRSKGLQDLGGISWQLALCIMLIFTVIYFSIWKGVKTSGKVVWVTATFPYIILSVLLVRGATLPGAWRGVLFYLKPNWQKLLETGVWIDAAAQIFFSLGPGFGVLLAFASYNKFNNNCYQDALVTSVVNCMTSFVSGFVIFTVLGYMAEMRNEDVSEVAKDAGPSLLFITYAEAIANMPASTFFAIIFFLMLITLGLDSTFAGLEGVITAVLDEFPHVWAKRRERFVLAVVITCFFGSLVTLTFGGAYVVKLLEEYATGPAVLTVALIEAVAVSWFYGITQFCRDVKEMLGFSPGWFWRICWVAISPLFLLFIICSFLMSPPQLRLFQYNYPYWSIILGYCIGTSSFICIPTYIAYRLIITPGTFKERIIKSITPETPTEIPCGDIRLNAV
READOUT LABEL: IC50 (µM)

[[record]]
compound = "Cc1ccccc1O[C@H]1C[C@@H](N(C)C(C)C)c2ccccc21 (relative stereo)"
relation_symbol = ">"
result = 10

[[record]]
compound = "CCN[C@@H]1C[C@H](Oc2ccccc2C)c2ccccc21 (relative stereo)"
relation_symbol = "="
result = 8

[[record]]
compound = "COc1ccccc1O[C@H]1C[C@@H](N(C)C)c2ccccc21 (relative stereo)"
relation_symbol = "="
result = 3.5

[[record]]
compound = "Cc1ccccc1O[C@@H]1CC[C@@H](N)c2ccccc21 (relative stereo)"
relation_symbol = ">"
result = 10

[[record]]
compound = "CN[C@@H]1CC[C@H](Oc2ccccc2C)c2ccccc21 (relative stereo)"
relation_symbol = "="
result = 5


---

Attribute: IC50
Target: Sodium-dependent noradrenaline transporter (Homo sapiens)
Assay: Inhibition of norepinephrine uptake at human NET in human HEK293 cells
READOUT LABEL: IC50 (nM)

[[record]]
molecule = "Cc1ccccc1O[C@H]1C[C@H](N)c2ccccc21 (relative stereo)"
value_units = "nM"
result = 840

[[record]]
molecule = "COc1ccccc1O[C@H]1C[C@@H](N(C)C)c2ccccc21 (relative stereo)"
value_units = "nM"
result = 3000

[[record]]
molecule = "CN[C@@H]1Cc2ccccc2[C@@H](Oc2ccccc2C)C1"
value_units = "nM"
result = 200

[[record]]
molecule = "N[C@@H]1C[C@H](Oc2ccccc2)c2ccccc21 (relative stereo)"
value_units = "nM"
result = 5000

[[record]]
molecule = "CN[C@H]1Cc2ccccc2[C@H](Oc2ccccc2C)C1"
value_units = "nM"
result = 8

[[record]]
molecule = "N[C@@H]1C[C@H](Oc2ccc(Cl)cc2)c2ccccc21 (relative stereo)"
value_units = "nM"
result = 4000

[[record]]
molecule = "COc1ccc(O[C@H]2C[C@@H](N(C)C)c3ccccc32)cc1"
value_units = "nM"
result = 6000

[[record]]
molecule = "CN[C@@H]1CC[C@H](Oc2ccccc2C)c2ccccc21 (relative stereo)"
value_units = "nM"
result = 520

[[record]]
molecule = "CN[C@@H]1Cc2ccccc2[C@H](Oc2ccccc2C)C1"
value_units = "nM"
result = 190

[[record]]
molecule = "Cc1ccccc1O[C@H]1CC[C@@H](N)c2ccccc21 (relative stereo)"
value_units = "nM"
result = 630

[[record]]
molecule = "CN[C@H]1Cc2ccccc2[C@@H](Oc2ccccc2C)C1"
value_units = "nM"
result = 160

[[record]]
molecule = "Cc1ccccc1O[C@@H]1C[C@@H](N(C)C)Cc2ccccc21"
value_units = "nM"
result = 430

[[record]]
molecule = "Cc1ccccc1O[C@H]1C[C@@H](N(C)C)c2ccccc21 (relative stereo)"
value_units = "nM"
result = 150

[[record]]
molecule = "CCN[C@@H]1C[C@H](Oc2ccccc2C)c2ccccc21 (relative stereo)"
value_units = "nM"
result = 3000

[[record]]
molecule = "Cc1ccccc1O[C@H]1C[C@@H](N(C)C(C)C)c2ccccc21 (relative stereo)"
value_units = "nM"
result = 1100

[[record]]
molecule = "CN[C@@H]1C[C@H](Oc2ccccc2C)c2ccccc21 (relative stereo)"
value_units = "nM"
result = 660

[[record]]
molecule = "CCN(CC)[C@@H]1C[C@H](Oc2ccccc2C)c2ccccc21 (relative stereo)"
value_units = "nM"
result = 2000

[[record]]
molecule = "CN[C@@H]1C[C@H](Oc2ccc(Cl)cc2)c2ccccc21 (relative stereo)"
value_units = "nM"
result = 4000

[[record]]
molecule = "CN(C)[C@@H]1C[C@H](Oc2ccc(Cl)cc2)c2ccccc21 (relative stereo)"
value_units = "nM"
result = 1600

[[record]]
molecule = "Cc1ccccc1O[C@H]1C[C@H](N(C)C)c2ccccc21"
value_units = "nM"
result = 150

[[record]]
molecule = "Cc1ccccc1O[C@@H]1CC[C@@H](N)c2ccccc21 (relative stereo)"
value_units = "nM"
result = 950

